Measured values drawn from paper PMC11672292 for this set.

# assayRemarks: Pharmacokinetics and tissue distribution after single intravenous administration
# Format: in vivo, mouse
# studyConditions: ICR, mouse, iv; mice, single i.v. 10 mg/kg; Spleen; read-out: t1/2 (converted)

{"columns": ["compound", "half-life (h)"],
 "data": [
  ["O=C(CCc1ccc(C(F)(F)F)cc1)O[C@@H]1C(=O)NCCc2c([nH]c3ccccc23)[C@H]1c1ccc(C(F)(F)F)cc1 [(+)3C-20]", 1.2]
]}

----------
# assayRemarks: Pharmacokinetics and tissue distribution after single intravenous administration
# Format: in vivo, mouse
# studyConditions: ICR, mouse, spleen, iv; mice, single i.v. 10 mg/kg; 2 h; read-out: Concentration of (+)3C-20, Spleen
# Protocol: Pharmacokinetic studies were performed as previously described.^[ [63] ^] Briefly, ICR mice were fasted without water for 16 h before drug administration and allowed access to food and water freely after administration. […]

{"columns": ["compound", "concentration at 2 h, ng/g"],
 "data": [
  ["O=C(CCc1ccc(C(F)(F)F)cc1)O[C@@H]1C(=O)NCCc2c([nH]c3ccccc23)[C@H]1c1ccc(C(F)(F)F)cc1 [(+)3C-20]", 595]
]}
